target: Arginase-2, mitochondrial (Homo sapiens) (UniProt P78540)
Sequence (P78540 whole entry): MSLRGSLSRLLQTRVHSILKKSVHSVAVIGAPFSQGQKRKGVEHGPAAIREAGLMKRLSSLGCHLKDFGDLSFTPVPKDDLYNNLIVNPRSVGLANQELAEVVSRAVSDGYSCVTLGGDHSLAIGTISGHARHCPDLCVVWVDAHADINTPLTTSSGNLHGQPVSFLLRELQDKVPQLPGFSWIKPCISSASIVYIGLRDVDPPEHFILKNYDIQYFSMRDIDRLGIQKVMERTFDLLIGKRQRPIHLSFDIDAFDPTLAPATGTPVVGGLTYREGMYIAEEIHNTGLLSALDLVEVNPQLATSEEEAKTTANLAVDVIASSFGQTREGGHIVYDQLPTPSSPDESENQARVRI
assay_remarks: in vitro enzyme assay to detect the production of urea directly proportional to the activity of Arginase II; also: in the data most compounds retested in dose-response had high values
Format: functional
Set-up: scale not given: direction of the effect not stated beside the values
applied_conditions: 33.3 µM

- compound: "CCc1noc(C(C)N(C)CC(=O)Nc2ccc(C)cc2)n1 (stereo not given)"
  Percent Effect (%): -0.455
- compound: "CCc1cnc(CN(C(C)=O)C2CCN(CCc3cccs3)C2)o1 (stereo not given)"
  Percent Effect (%): 2.16
- compound: "O=C(CCN1CCCC1c1cccs1)N1CCc2sccc2C1 (stereo not given)"
  Percent Effect (%): -18
- compound: "O=C(Cc1ccc(F)cc1)N1CCCCC1c1ccn2ccnc2n1 (stereo not given)"
  Percent Effect (%): -1.16
- compound: "O=C(C1=CCCC1)N1C[C@H](Oc2cccnc2)[C@H]2OCCC[C@H]21"
  Percent Effect (%): -2.08
- compound: "Cc1nc(C)n(CC2CN(c3nnc(C)c(C)c3C#N)CCO2)n1 (stereo not given)"
  Percent Effect (%): 2.68
- compound: "CCc1nccn1C1CCCN(C(=O)CCc2nccs2)C1 (stereo not given)"
  Percent Effect (%): -6.81
- compound: "Cc1noc(Cl)c1CCC(=O)N1CCCCC1Cn1cccn1 (stereo not given)"
  Percent Effect (%): -2.37
- compound: "CCc1c(C)nc2cc(C3CCN(Cc4ccccc4F)C3)nn2c1O (stereo not given)"
  Percent Effect (%): 2.09
- compound: "O=C(NC1CCN(c2snc3ccccc23)CC1)C1CCC1"
  Percent Effect (%): -1.07
- compound: "Cc1csc(N2CCCN(C(=O)C(C)n3ccnc3)CC2)n1 (stereo not given)"
  Percent Effect (%): -2.77
- compound: "Cc1cc(CN2CCC(c3ccnn3CCO)CC2)no1"
  Percent Effect (%): 3.8
- compound: "O=C(c1ccccn1)N1C[C@@H]2CC[C@H](C1)N(C(=O)CCc1cccs1)C2"
  Percent Effect (%): -74.5
- compound: "CNc1cc2c(nn1)CCN(C(=O)c1ccc(-n3nccc3C)cc1)C2"
  Percent Effect (%): -1.9
- compound: "CCc1nc(CC(=O)N2CCn3c(nnc3C(C)C)C2)cs1"
  Percent Effect (%): -1.92

---

Tested on: Trypanosoma cruzi
assay_remarks: Trypanosoma cruzi phosphomannomutase and mannose-1-phosphate guanylyltransferase assay
Format: functional
Design: scale not given: direction of the effect not stated beside the values
applied_conditions: 10 µM
attribute_measured: Percent Effect (%)

- molecule: "CCC(C)(C)NC(=O)Cn1nc(C)nc1-c1cccc(C)c1"
  target: "Trypanosoma cruzi"
  attribute_measured: "Percent Effect"
  uom: "%"
  reported_result: -3
- molecule: "Cc1noc([C@@H]2CC[C@@H]3[C@@H](CCN3S(=O)(=O)c3cccnc3)O2)n1"
  target: "Trypanosoma cruzi"
  attribute_measured: "Percent Effect"
  uom: "%"
  reported_result: -3.12
- molecule: "Cc1cnn(C2CCCN(C(=O)c3ccn(C)c(=O)c3)C2)c1 (stereo not drawn)"
  target: "Trypanosoma cruzi"
  attribute_measured: "Percent Effect"
  uom: "%"
  reported_result: 1.08
- molecule: "CCc1c(C(=O)N2CCN(CC(N)=O)CC2)cnn1C(C)(C)C"
  target: "Trypanosoma cruzi"
  attribute_measured: "Percent Effect"
  uom: "%"
  reported_result: 5.32
- molecule: "Cc1nc(C(C)C)sc1C(=O)NS(=O)(=O)c1ccc(C#N)cc1"
  target: "Trypanosoma cruzi"
  attribute_measured: "Percent Effect"
  uom: "%"
  reported_result: 5.99
- molecule: "CCc1nnc(CN2CCN(C(=O)c3cc4ccccc4[nH]3)CC2)o1"
  target: "Trypanosoma cruzi"
  attribute_measured: "Percent Effect"
  uom: "%"
  reported_result: 8.91
- molecule: "Nc1cc2c(nn1)CCN(C(=O)CC1CCCC1)C2"
  target: "Trypanosoma cruzi"
  attribute_measured: "Percent Effect"
  uom: "%"
  reported_result: -3.12
- molecule: "CC(C)c1csc(C2CCCN(C(=O)c3ccc(=O)n(C)n3)C2)n1 (stereo not drawn)"
  target: "Trypanosoma cruzi"
  attribute_measured: "Percent Effect"
  uom: "%"
  reported_result: -1.86
- molecule: "Fc1ccc(CCN2CCC(c3nnc(-c4cccnc4)o3)CC2)cc1"
  target: "Trypanosoma cruzi"
  attribute_measured: "Percent Effect"
  uom: "%"
  reported_result: -0.988
- molecule: "COc1ccc(NC(=O)CCC2CCCN(Cc3ncon3)C2)cc1Cl (stereo not drawn)"
  target: "Trypanosoma cruzi"
  attribute_measured: "Percent Effect"
  uom: "%"
  reported_result: 2.82
- molecule: "COc1ncccc1NC(=O)N1CCC(CN2CCOCC2)CC1"
  target: "Trypanosoma cruzi"
  attribute_measured: "Percent Effect"
  uom: "%"
  reported_result: 5.55
- molecule: "O=S(=O)(c1cccs1)N1CCCn2nnc(CN3CCCCC3)c2C1"
  target: "Trypanosoma cruzi"
  attribute_measured: "Percent Effect"
  uom: "%"
  reported_result: 2.7
- molecule: "CCOc1ccc(CC(=O)N2CCN(c3nccn3C)CC2)cc1"
  target: "Trypanosoma cruzi"
  attribute_measured: "Percent Effect"
  uom: "%"
  reported_result: -5.62
